# assay_target: T1, 4H3961-bA
# T1 chain: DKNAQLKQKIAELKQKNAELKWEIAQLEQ
# experiment_summary: two-hybrid library CCNG1;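 also: natural log of median RNA to DNA barcode read ratio; higher means stronger binding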
measurement_type: interaction score
// return a plain number; no unit text

Specify reported interaction score for the binder shown: DEIAQLEQKIAELKQENAELEWKNAQLKQ [4H344-bA]
1.48

Specify reported interaction score for the binder shown: DKNAQLKQKIAELKQEIAELEWENAQLEQ [4H3907-bA]
-1.16

Specify reported interaction score for the binder shown: DEIAQLEQKIAELKQKIAELKWENAQLEQ [4H363-bA]
0.154

Specify reported interaction score for the binder shown: DKIAQLKQEIAELEQEIAELEWKNAQLKQ [4H2568-bA]
2.32
